Data origin: PubChem BioAssay (Tox21)

# Target of assay: Peroxisome proliferator-activated receptor gamma (Homo sapiens) (UniProt P37231)
# Sequence (P37231 whole entry, looked up): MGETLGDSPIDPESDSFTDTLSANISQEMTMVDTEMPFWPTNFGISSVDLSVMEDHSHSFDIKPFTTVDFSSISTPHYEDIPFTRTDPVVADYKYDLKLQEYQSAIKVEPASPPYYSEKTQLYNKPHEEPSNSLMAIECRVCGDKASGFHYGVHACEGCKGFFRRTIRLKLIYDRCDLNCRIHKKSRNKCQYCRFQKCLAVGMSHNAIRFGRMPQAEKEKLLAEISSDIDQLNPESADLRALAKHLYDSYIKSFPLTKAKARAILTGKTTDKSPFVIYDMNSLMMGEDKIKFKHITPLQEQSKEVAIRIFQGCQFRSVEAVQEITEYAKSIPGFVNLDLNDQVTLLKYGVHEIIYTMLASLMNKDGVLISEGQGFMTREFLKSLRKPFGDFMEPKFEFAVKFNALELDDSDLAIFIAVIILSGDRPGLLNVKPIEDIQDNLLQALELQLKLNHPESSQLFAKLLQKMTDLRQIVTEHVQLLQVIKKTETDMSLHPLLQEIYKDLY
# Test method notes: qHTS assay to identify small molecule antagonists of the peroxisome proliferator-activated receptor gamma (PPARg) signaling pathway (AID 743191); also: nearly all actives have a fitted effect of over 30% in size; also: potency is read from the fitted curve at half-maximal effect
# Condition set: HEK293H PPARg-UAS-bla, beta-lactamase ratio, antagonist, 17 h; series mostly up to 62.6 µM
# Source text: U.S. Tox21 Program National Center for Advancing Translational Sciences [NCATS] NIH Chemical Genomics Center [NCGC] U.S. Environmental Protection Agency [EPA] National Institutes of Environmental Health Sciences [NIEHS] National Toxicology Program [NTP] U.S. Food and Drug Administration [FDA] […]
Results filed as inconclusive are left out. Activity calls are given as the source filed them. Calls follow the shape of the full dose curve.
Readout type: Potency

# Molecule, Target of assay, Readout type, Assay value
measured = [
    ("Nc1ccc(C(=O)OCCCOC(=O)c2ccc(N)cc2)cc1", "Peroxisome proliferator-activated receptor gamma (Homo sapiens) (UniProt P37231)", "Potency", "43.6 µM (active)"),
    ("COC(=O)c1cc(S(N)(=O)=O)ccc1OC", "Peroxisome proliferator-activated receptor gamma (Homo sapiens) (UniProt P37231)", "Potency", "inactive"),
    ("CCC(C)(O)CCC=C(C)C (stereo unspecified)", "Peroxisome proliferator-activated receptor gamma (Homo sapiens) (UniProt P37231)", "Potency", "inactive"),
    ("c1ccc(COCc2ccccc2)cc1", "Peroxisome proliferator-activated receptor gamma (Homo sapiens) (UniProt P37231)", "Potency", "inactive"),
    ("Cc1nccn1-c1ccc(Sc2cccc(C3(C(N)=O)CCOCC3)c2)cc1", "Peroxisome proliferator-activated receptor gamma (Homo sapiens) (UniProt P37231)", "Potency", "inactive"),
]

The reported Potency of the molecule `CCCCC(=O)O[C@]1(C(=O)CO)[C@@H](C)C[C@H]2[C@@H]3CCC4=CC(=O)C=C[C@]4(C)[C@@]3(F)[C@@H](O)C[C@@]21C` was inactive

====

# Test method notes: qHTS assay to identify small molecule agonists of the estrogen receptor alpha (ER-alpha) signaling pathway in the presence of an antagonist - cell viability counter screen (AID 1259386);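 also: cells exposed to compounds for 22 h at 37 °C before the viability read; nearly all actives have a fitted effect of over 30% in size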
# Condition set: VM7Luc4E2 viability, CellTiter-Fluor fluorescence, 22 h; series mostly up to 92.4 µM
Records with an inconclusive call do not appear. Activity calls are given as the source filed them. Calls follow the shape of the dose curve; as a rule, active = well fitted cell-killing curve with a large enough effect in the repeat runs; inconclusive = weak or mixed curves, or effect the other way; inactive = no such curve, though single readings can be large or run the other way.
Use one of these outcomes when replying: Yes (active), No (inactive)

# Compound, Label class
rows = [
    ("Oc1cc(O)c(Cl)cc1Cl", "No"),
]

Which outcome did this test record for the compound `CCOC(=N)CC(=O)OCC` ?
No

Which outcome did this test record for the compound CN1C(=O)CC(C)(c2ccccc2)C1=O (stereo unspecified) ?
No

Which outcome did this test record for the compound `CCc1cccc(N(C)C(N)=Nc2cccc3ccccc23)c1` ?
No

Which outcome did this test record for the compound `CCC(C)=O` ?
No

Which outcome did this test record for the compound `c1cnc2c(n1)CCCC2` ?
No

Which outcome did this test record for the compound CC(C)(C)C(=O)C(Oc1ccc(Cl)cc1)n1ccnc1 (stereo unspecified) ?
No

Which outcome did this test record for the compound `CC(C)(O)c1ccccc1CC[C@@H](SCC1(CC(=O)O)CC1)c1cccc(/C=C/c2ccc3ccc(Cl)cc3n2)c1` ?
No

Which outcome did this test record for the compound O=C(CCCN1CCN(c2ccc(F)cc2)CC1)NC1c2ccccc2CSc2ccccc21 (stereo unspecified) ?
No

Which outcome did this test record for the compound CC(CCc1ccc2c(c1)OCO2)NN (stereo unspecified) ?
No

Which outcome did this test record for the compound `COc1ccc(CCC(=O)c2c(O)cc(O[C@@H]3O[C@H](CO)[C@@H](O)[C@H](O)[C@H]3O[C@@H]3O[C@@H](C)[C@H](O)[C@@H](O)[C@H]3O)cc2O)cc1O` ?
No

Which outcome did this test record for the compound CCCCC(CC)COC(=O)COc1ccc(Cl)cc1C (stereo unspecified) ?
No

Which outcome did this test record for the compound `CC(=O)OCC(=O)[C@H]1CC[C@H]2[C@@H]3CCC4=CC(=O)CC[C@]4(C)[C@H]3CC[C@]12C` ?
No

Which outcome did this test record for the compound `O=C(N/N=C/c1ccc([N+](=O)[O-])o1)c1ccc(O)cc1` ?
Yes

Which outcome did this test record for the compound `C=CC(=O)NCOCC(C)C` ?
No

Which outcome did this test record for the compound `C(=C\c1ccccc1)/CN1CCN(C(c2ccccc2)c2ccccc2)CC1` ?
No
